System: LXRa homodimer (NR concentration 270 nM)
protocolText: PBM binding z-score (relative to random genomic background probes); higher = stronger binding; sequences stand for … in GC…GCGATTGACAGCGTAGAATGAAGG
Would you mind labelling by PBM binding z-score? At or over 0.1 is Condition met, under is Condition not met.

TCATGTAGGTAAAGGTGAAAGTCGAACGATATGA Condition not met
GGAACGAGGGCATTCGAGTTGATAGCGTGGCGAT Condition not met
CGAACTAGGTCATCCATGACAGTGAATACATTGA Condition met
GCTATTAGTTGACAGGGCAACCGAATGATTCTCG Condition not met
TCATATAGGTAAACGCTAGGTGAAAGTCCGATCT Condition met
CCGACTGGGGCAAGGTTACCCTAACGCACAGCCA Condition not met
CGTCCAAGGTCAATGCTGGGTCAGTGAAAGCATT Condition met
TTACCAAGGTGAAGGTCCTTGATCCCTCTGTAGA Condition not met
TAGCCTAGGTCAGATCGGGCCAGTAGACGCTATA Condition not met

# next sequence below
Please indicate if the recorded PBM binding z-score for CCTTACGGTTCAAGGTTATAGCACGGGTGGTACG meets or exceeds 0.1.
Condition met

---

This listing pairs sequences with measured PBM binding z-score.
Tested on: VDR homodimer (NR concentration 270 nM)
protocolText: PBM binding z-score (relative to random genomic background probes); higher = stronger binding; sequences stand for … in GC…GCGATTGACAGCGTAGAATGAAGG
# respond with the number and nothing more

TAGCCTAGGTCATTCAGGGGCCTGTATAGAAAGC 1.04
AGCACGAGGGCAATGAGTTGATAGCACGGGTGGC 3.16
TGAATGAGGTTATAAGATCAGCGAACGTTGCAAA 0.262
TCTGCTAGGTCAGTAGGTCAGCTAACGAGCTGCC -0.0493
GCTGCTAGGTCAGGTTGATCAGCTAACGGGTACG 0.442

Look at this sequence and give its reported PBM binding z-score. TCTCGGAGGACACGAAGGGCAGAGCTTTCCAGAG
-0.0061

State the recorded PBM binding z-score for this entry: AGAACGATGGCACGCTGAGTTGATAGCAGAGTAG
-0.128

PBM binding z-score lookup needed for GCGACTGGGGCATCAGCAGGTTACCATTACTTAA , thanks.
-0.0861

---

System: PPARa:RXRa (NR concentration 270 nM, RXRa partner concentration 90 nM)
protocolText: PBM binding z-score (relative to random genomic background probes); higher = stronger binding; sequences stand for … in GC…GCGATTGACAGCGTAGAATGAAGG
measuredParameter: PBM binding z-score
# answer = number (no unit)

GCGACTGGGGCGAAGCAGGTTACCATAAGGTTGG 0.234
CGAACTAGGTCATCTAGGACAGTGAATACATTGA 4.72

# lookup: PBM binding z-score of AGAACGAGGGCAACGAGTTGATAGCACGGGTGGC
1.59

// query PBM binding z-score value for entry TAGCCTAGGTCATTCCGGGGCCAGTATAGAAAGC
3.21

Dear colleague, I am looking for the recorded PBM binding z-score of the following sequence: CGAACTCGGTCAAGGACAGTGAATCTCCGCACGC
0.927

---

Test system: PPARg:RXRa 90nM:30nM, anti-RXR (NR concentration 90 nM, RXRa partner concentration 30 nM)
protocolText: PBM binding z-score (relative to random genomic background probes); higher = stronger binding; sequences stand for … in GC…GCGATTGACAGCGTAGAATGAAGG
Please mark Fulfilled if the recorded PBM binding z-score is equal to or greater than 1, and Not fulfilled if it falls below.

Would you please look over these solved cases?
ACTAGTTGGTCAGCTGAGGTCACACAGAATTCGG Fulfilled
TCATATAGGTAAATGCTAGTTGAAAGTCCGATCT Fulfilled
GCATATAGGTAATGCAAGGTGAAAGTCCGATTGT Not fulfilled
TCTTGTAGATCAACAGGTGGTTAAGAAAGATCGA Fulfilled
TAGCCTAGGTCAGATCGGGCCAGAATACGCTATA Not fulfilled

Does GATAGAGGGTCAGCTAGAGGCCAGAGTATGGAAA have a reported PBM binding z-score of at least 1?
Fulfilled

Record TTACCAAGGTGAGCTGAGGTGGTTGATCCAACTC ; criterion: PBM binding z-score no lower than 1. Met?
Not fulfilled

Textbook exercise: given the entry CCTAGATGGTCAAGGTCACACACGCTATAGGTAC , state whether its PBM binding z-score is greater than or equal to 1.
Fulfilled

Does the sequence ATCTCTAGGTAAAGATACTTCAGTGAATGCAAAT have recorded PBM binding z-score that is 1 or more?
Not fulfilled

I'd appreciate it if you could say whether GTACTAAGGTGAATAGGTCGTTGATGAGTAGGCG has PBM binding z-score at least equal to 1.
Fulfilled

Does PBM binding z-score meet or surpass 1 for CCTACTGGGCCAAGGTTATTGATCAGTCAAAGCA ?
Fulfilled

Determine whether this sequence has PBM binding z-score no lower than 1: GCTAGGAGGCCATTTGGGTCACTCAATGACGGGC
Not fulfilled

Please indicate if the recorded PBM binding z-score for TCCGACAGGTGAAGGTAACTCAGGTACGCAGTCG meets or exceeds 1.
Fulfilled

Hi team, for CCGACTGGGGCATAAGGTTCCCATAAGCCAGCCC , is the recorded PBM binding z-score at or above 1?
Fulfilled

Decide: is the reported value of PBM binding z-score for GCTTACGGGTCAAAGATTATAGCATGAATAGAAT equal to or greater than 1?
Fulfilled
